Conditions: 358.15 K; 40000 kPa; Liquid; Vibrating tube method
Recorded mass density, one value per entry.
Reply numerically in kg/m3, unit not repeated.

- smiles.record: "CCCCCCCCCCO"
  mass density [kg/m3]: 811.9
- smiles.record: "CCCCO"
  mass density [kg/m3]: 792

The reported value for "CCCO" in terms of mass density is 785.5

====

Recorded mass density, one value per entry.
Details: 328.15 K; 15000 kPa; Liquid; Vibrating tube method
Reply numerically in kg/m3, unit not repeated.

- smiles.record: "CCCCCCCCCCO"
  mass density, kg/m3: 815.2
- smiles.record: "CCCCCO"
  mass density, kg/m3: 800.1
- smiles.record: "CCCO"
  mass density, kg/m3: 788.5
- smiles.record: "CCCCCCCO"
  mass density, kg/m3: 808.1
- smiles.record: "CCCCCCCCCCCO"
  mass density, kg/m3: 817.3
- smiles.record: "CCCCCCCCCO"
  mass density, kg/m3: 813.1
- smiles.record: "CCO"
  mass density, kg/m3: 773.6
- smiles.record: "CCCCCCO"
  mass density, kg/m3: 804.4

The reported value for "CCCCO" in terms of mass density is 795

The reported value for "CCCCCCCCO" in terms of mass density is 811.1

====

Settings: 318.15 K; 1000 kPa; Liquid; Vibrating tube method
value.kind: mass density (kg/m3)
Reply numerically in kg/m3, unit not repeated.

Observe how each entry below is paired with its result.
- compound: "CCCCCCCO [heptan-1-ol]"
  value.kind: "mass density"
  measured.number: 805
- compound: "CCCCCCCCCCCO [1-undecanol]"
  value.kind: "mass density"
  measured.number: 814.7
- compound: "CCO [ethanol]"
  value.kind: "mass density"
  measured.number: 768.3
- compound: "CCCCCCO [hexan-1-ol]"
  value.kind: "mass density"
  measured.number: 801.2
- compound: "CCCCCCCCCCO [decan-1-ol]"
  value.kind: "mass density"
  measured.number: 812.5
- compound: "CCCCO [butan-1-ol]"
  value.kind: "mass density"
  measured.number: 791.1

The reported value for CCCCCO [pentan-1-ol] in terms of mass density is 796.6

The reported value for CCCCCCCCCO [nonan-1-ol] in terms of mass density is 810.4

The reported value for CCCCCCCCO [octan-1-ol] in terms of mass density is 808.1

The reported value for CCCO [propan-1-ol] in terms of mass density is 784.2

====

Conditions: 318.15 K; 25000 kPa; Liquid; Vibrating tube method
value.kind: mass density (kg/m3)
Reply numerically in kg/m3, unit not repeated.

Observe how each entry below is paired with its result.
- smiles.record: "CCCCCCO"
  measured.number: 817.9
- smiles.record: "CCCCCCCO"
  measured.number: 821.2
- smiles.record: "CCCCO"
  measured.number: 809.5
- smiles.record: "CCCCCCCCO"
  measured.number: 823.8
- smiles.record: "CCO"
  measured.number: 790.1
- smiles.record: "CCCCCO"
  measured.number: 814
- smiles.record: "CCCO"
  measured.number: 803.9
- smiles.record: "CCCCCCCCCCCO"
  measured.number: 829.5

The reported value for "CCCCCCCCCCO" in terms of mass density is 827.6

The reported value for "CCCCCCCCCO" in terms of mass density is 825.6

====

Details: 358.15 K; 100 kPa; Liquid; Vibrating tube method
Recorded mass density, one value per entry.
Reply numerically in kg/m3, unit not repeated.

Observe how each entry below is paired with its result.
- smiles.record: "CCCCCCCCCO"
  mass density, kg/m3: 780.9
- smiles.record: "CCCCO"
  mass density, kg/m3: 756.6
- smiles.record: "CCCCCCO"
  mass density, kg/m3: 769.4
- smiles.record: "CCCCCO"
  mass density, kg/m3: 763.8
- smiles.record: "CCO"
  mass density, kg/m3: 729.5

Please find the next molecule below.
The reported value for "CCCCCCCCO" in terms of mass density is 778

====

Details: 298.15 K; 10000 kPa; Liquid; Vibrating tube method
value.kind: mass density (kg/m3)
Reply numerically in kg/m3, unit not repeated.

- compound: "CCCCCCCCCCO [decan-1-ol]"
  mass density, kg/m3: 831.5
- compound: "CCCCCCO [hexan-1-ol]"
  mass density, kg/m3: 821.7
- compound: "CCCO [propan-1-ol]"
  mass density, kg/m3: 807.6
- compound: "CCO [ethanol]"
  mass density, kg/m3: 793.6
- compound: "CCCCO [butan-1-ol]"
  mass density, kg/m3: 813.3
- compound: "CCCCCCCCO [octan-1-ol]"
  mass density, kg/m3: 827.7
- compound: "CCCCCCCCCCCO [1-undecanol]"
  mass density, kg/m3: 833.6
- compound: "CCCCCCCCCO [nonan-1-ol]"
  mass density, kg/m3: 829.4

The reported value for CCCCCCCO [heptan-1-ol] in terms of mass density is 824.9

The reported value for CCCCCO [pentan-1-ol] in terms of mass density is 817.7

====

Conditions: 278.15 K; 55000 kPa; Liquid; Vibrating tube method
value.kind: mass density (kg/m3)
Reply numerically in kg/m3, unit not repeated.

Observe how each entry below is paired with its result.
- compound: "CCCCCCCCCO [nonan-1-ol]"
  result.unit: "kg/m3"
  mass density: 864.4
- compound: "CCO [ethanol]"
  result.unit: "kg/m3"
  mass density: 839.1
- compound: "CCCCCO [pentan-1-ol]"
  result.unit: "kg/m3"
  mass density: 856.1

The reported value for CCCO [propan-1-ol] in terms of mass density is 849.7

The reported value for CCCCCCO [hexan-1-ol] in terms of mass density is 858.7

The reported value for CCCCCCCCO [octan-1-ol] in terms of mass density is 863.4

The reported value for CCCCCCCO [heptan-1-ol] in terms of mass density is 861.3

The reported value for CCCCO [butan-1-ol] in terms of mass density is 853.2

====

Conditions: 338.15 K; 100 kPa; Liquid; Vibrating tube method
value.kind: mass density (kg/m3)
Reply numerically in kg/m3, unit not repeated.

Observe how each entry below is paired with its result.
- compound: "CCCCO [butan-1-ol]"
  measured.number: 774
- compound: "CCCCCCO [hexan-1-ol]"
  measured.number: 785.4
- compound: "CCCCCCCCCCO [decan-1-ol]"
  measured.number: 798

The reported value for CCCCCCCCCCCO [1-undecanol] in terms of mass density is 800.5

The reported value for CCCO [propan-1-ol] in terms of mass density is 766.3

The reported value for CCCCCCCO [heptan-1-ol] in terms of mass density is 789.7

The reported value for CCCCCCCCCO [nonan-1-ol] in terms of mass density is 795.7

The reported value for CCCCCO [pentan-1-ol] in terms of mass density is 780.3

The reported value for CCO [ethanol] in terms of mass density is 749.1

The reported value for CCCCCCCCO [octan-1-ol] in terms of mass density is 793.2

====

Details: 318.15 K; 55000 kPa; Liquid; Vibrating tube method
Recorded mass density, one value per entry.
Reply numerically in kg/m3, unit not repeated.

The reported value for "CCCCCO" in terms of mass density is 831.9

The reported value for "CCCCCCO" in terms of mass density is 835.1

The reported value for "CCCCCCCO" in terms of mass density is 838

The reported value for "CCCCCCCCCO" in terms of mass density is 841.7

The reported value for "CCO" in terms of mass density is 811.6

The reported value for "CCCO" in terms of mass density is 823.6

The reported value for "CCCCO" in terms of mass density is 828.2

The reported value for "CCCCCCCCO" in terms of mass density is 840.3

The reported value for "CCCCCCCCCCCO" in terms of mass density is 845.1

The reported value for "CCCCCCCCCCO" in terms of mass density is 843.4

====

Recorded mass density, one value per entry.
Conditions: 308.15 K; 25000 kPa; Liquid; Vibrating tube method
Reply numerically in kg/m3, unit not repeated.

Observe how each entry below is paired with its result.
- smiles.record: "CCCCCCCCO"
  mass density, kg/m3: 830.1
- smiles.record: "CCCCO"
  mass density, kg/m3: 816.4
- smiles.record: "CCCCCCO"
  mass density, kg/m3: 824.5

The reported value for "CCCCCCCCCO" in terms of mass density is 831.8

The reported value for "CCCCCO" in terms of mass density is 820.7

The reported value for "CCO" in terms of mass density is 797.8

The reported value for "CCCCCCCCCCO" in terms of mass density is 833.7

The reported value for "CCCCCCCCCCCO" in terms of mass density is 835.6

The reported value for "CCCCCCCO" in terms of mass density is 827.6

The reported value for "CCCO" in terms of mass density is 811.1
